# MEASURED_TARGET: CDK19 (inactive) (Homo sapiens (Human), UniProt Q9BWU1)
# Sequence (Q9BWU1 whole entry): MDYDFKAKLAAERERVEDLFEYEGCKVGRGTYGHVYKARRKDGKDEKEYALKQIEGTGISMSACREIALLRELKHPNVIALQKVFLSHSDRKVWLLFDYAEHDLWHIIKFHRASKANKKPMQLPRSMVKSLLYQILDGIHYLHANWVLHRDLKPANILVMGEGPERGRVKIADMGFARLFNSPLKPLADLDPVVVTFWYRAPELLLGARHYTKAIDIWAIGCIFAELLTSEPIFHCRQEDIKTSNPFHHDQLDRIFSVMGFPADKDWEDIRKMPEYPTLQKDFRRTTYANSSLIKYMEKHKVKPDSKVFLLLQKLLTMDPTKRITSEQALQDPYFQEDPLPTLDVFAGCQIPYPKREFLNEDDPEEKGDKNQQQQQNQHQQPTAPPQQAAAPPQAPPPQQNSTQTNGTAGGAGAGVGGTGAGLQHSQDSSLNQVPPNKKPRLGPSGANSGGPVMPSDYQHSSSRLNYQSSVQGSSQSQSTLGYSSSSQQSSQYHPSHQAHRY
# MEASUREMENT_NOTES: CDK19 (inactive) LanthaScreen Eu kinase binding assay
# CONDITION_DETAILS: read-out: IC50 against CDK19
# Procedure: Compounds were screened in 1% DMSO (final) in the well. For 10 point titrations, 3-fold serial dilutions were conducted from the starting concentration. The Bar-coded, low volume, white 384-well plate (Greiner Cat. #784207) were used for the assay. […] After the 1 hour Kinase Reaction incubation, the plate was read on a fluorescence plate reader (Infinite F500, Tecan Systems Inc, USA) and data was analyzed using XLfit from IDBS. […]
MEASUREMENT_NAME: IC50

| MOLECULE | MEASUREMENT_NAME | OBSERVED_VALUE |
| --- | --- | --- |
| Nc1nccc2c(Br)cc3cc(C(=O)[O-])ccc3c12.[Na+] [Compound 29] | IC50 | < 0.3 µM |
